Listing of recorded melting point by entry.

{"compound": "C=CCO/N=C1\\CCN(c2cc(NS(=O)(=O)C(F)(F)F)c(C)cc2C)C1=O", "melting point": "184 to 187 °C"}
{"compound": "CO/N=C1\\CCN(c2cc(NS(=O)(=O)C(F)(F)F)c(C)cc2C)C1=O", "melting point": "226 to 229 °C"}
{"compound": "Cc1cc(C)c(N2CC/C(=N\\O)C2=O)cc1NS(=O)(=O)C(F)(F)F", "melting point": "213 to 216 °C"}
{"compound": "C#CCO/N=C1\\CCN(c2cc(NS(=O)(=O)C(F)(F)F)c(C)cc2C)C1=O", "melting point": "175 to 178 °C"}
{"compound": "Cc1cc(C)c(N2CCC(OC3CCC3)C2=O)cc1NS(=O)(=O)C(F)(F)F (stereo not drawn)", "melting point": "166 to 169 °C"}
{"compound": "C#CCOC1CCN(c2cc(NS(=O)(=O)C(F)(F)F)c(C)cc2C)C1=O (stereo not drawn)", "melting point": "164 to 167 °C"}
{"compound": "Cc1cc(C)c(N2CCC(OC3CC3)C2=O)cc1NS(=O)(=O)C(F)(F)F (stereo not drawn)", "melting point": "171 to 174 °C"}
{"compound": "C=CCOC1CCN(c2cc(NS(=O)(=O)C(F)(F)F)c(C)cc2C)C1=O (stereo not drawn)", "melting point": "134 to 137 °C"}
{"compound": "CCO/N=C1\\CCN(c2cc(NS(=O)(=O)C(F)(F)F)c(C)cc2C)C1=O", "melting point": "201 to 204 °C"}
